System: Fer (mouse);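 note: 11-residue human phosphosite peptides and single-mutation variants displayed on the E. coli surface, counted by deep sequencing, each peptide's frequency after selection divided by its frequency in the unselected input library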;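 note: frequency after pTyr selection over input frequency; kinase dosed for 20-30% of maximal phosphorylation in three min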
Assay: phosphorylation enrichment, bacterial display (enrichment ratio); higher = better substrate or ligand; peptides without Tyr show the background
Note to self: class = bucket of phosphorylation enrichment, per bottom range: < 0.5; center range: ≥ 0.5 and < 0.6; top range: ≥ 0.6

As a guide, the following entries are already answered.
SVETPYVSVTF [NDRG2_Y47_G48V] = top range
AGTILSHAHLD [ASS1_Y291_Y291S] = bottom range
HNLDYYKKTTN [FGFR3_Y648] = center range
LQEQNYLAVDS [FAM114A1_Y115] = top range
AKVKPYINGTS [IBTK_Y1064_V1065I] = bottom range
TESALYGCTVL [KIAA1804_Y724] = top range
EDKFMYSEFPQ [PTEN_Y240_F241S] = top range
VRALTYCDLHK [KCNH2_Y827] = center range
GHLYAYDWIRI [BEST1_Y227_S231R] = top range
HSLLQYGGSAN [ANK1_Y624_R619H] = bottom range

Please indicate the class for DTQNSYGCATS [TSC1_Y304] based on its phosphorylation enrichment. bottom range

Please indicate the class for KNKKDYYDMYE [SLC26A3_Y526] based on its phosphorylation enrichment. center range

Please indicate the class for ISTAGYSFPEL [EDAR_Y406_I408F] based on its phosphorylation enrichment. bottom range

Please indicate the class for HFEFKYVINAI [MAOA_Y268_C266F_YF] based on its phosphorylation enrichment. top range

Please indicate the class for SFTDPYAQPSL [KMT2D_Y2378_P2382S_YF] based on its phosphorylation enrichment. bottom range

Please indicate the class for RNLLIYTEFGK [HGD_Y166_G161R] based on its phosphorylation enrichment. top range
